- Experimental target: Type-1 angiotensin II receptor (Homo sapiens)
- Sequence (whole entry): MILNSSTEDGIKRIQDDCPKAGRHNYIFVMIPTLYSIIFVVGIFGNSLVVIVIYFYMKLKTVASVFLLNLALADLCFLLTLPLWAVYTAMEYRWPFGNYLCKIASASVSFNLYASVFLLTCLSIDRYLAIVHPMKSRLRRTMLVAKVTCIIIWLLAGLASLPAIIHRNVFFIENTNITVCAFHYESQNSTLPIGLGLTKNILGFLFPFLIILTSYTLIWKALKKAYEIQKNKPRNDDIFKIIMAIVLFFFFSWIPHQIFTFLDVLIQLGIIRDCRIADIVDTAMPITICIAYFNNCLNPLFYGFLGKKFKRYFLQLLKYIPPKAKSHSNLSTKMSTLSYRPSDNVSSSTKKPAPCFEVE
- Protocol: Displacement of [3H]valsartan from human recombinant AT1 receptor expressed in CHO cells at 10 uM after 40 mins by liquid scintillation counting
- Assay type: cell-based
The source made the active and inactive calls. The rule behind the calls is not given here.
Labels: T (active), F (inactive)

- Compound string: "CC[C@H](C)[C@H](NC(=O)[C@H](Cc1ccc(O)cc1)NC(=O)[C@@H](N)C(C)C)C(=O)N[C@H]1Cc2c([nH]c3ccccc23)CN(CC(=O)N[C@@H](Cc2ccccc2)C(=O)O)C1=O"
  Experimental target: "Type-1 angiotensin II receptor (Homo sapiens)"
  Assigned class: "F"
- Compound string: "CC[C@H](C)[C@H](NC(=O)[C@H](Cc1ccc(O)cc1)NC(=O)[C@@H](CN)C(C)C)C(=O)N[C@H]1Cc2c([nH]c3ccccc23)CN(CC(=O)N[C@@H](Cc2ccccc2)C(=O)O)C1=O"
  Experimental target: "Type-1 angiotensin II receptor (Homo sapiens)"
  Assigned class: "F"
- Compound string: "CC[C@H](C)[C@H](NC(=O)[C@H](Cc1ccc(O)cc1)NC(=O)[C@@H](CN)C(C)C)C(=O)N[C@H]1Cc2ccccc2CN(CC(=O)N[C@@H](Cc2ccccc2)C(=O)O)C1=O"
  Experimental target: "Type-1 angiotensin II receptor (Homo sapiens)"
  Assigned class: "T"

---

- Experimental target: Type-1 angiotensin II receptor (Homo sapiens)
- Protocol: Displacement of [3H]valsartan from human recombinant AT1 receptor expressed in CHO cells at 10 uM after 40 mins by liquid scintillation counting
- Type: cell-based
Activity calls are given as the source filed them. The rule behind the calls is not given here. Numbered stars: 1 amine (or outer) side, 2 acyl side, 3 side chain; on linkers, the order of the positions; unused ones are H or OH. Square brackets hold non-standard residues; d marks the D form. Peptide text beside a SMILES is read from it. X1 = O=C([C@@H]1Cc2nc[nH]c2CN1[*:1])[*:2]; Tic = O=C(O)[C@@H]1Cc2ccccc2CN1

- Molecule: "CC[C@H](C)[C@H](NC(=O)[C@H](Cc1ccc(O)cc1)NC(=O)[C@@H](N)C(C)C)C(=O)N[C@H]1Cc2ccccc2CN(CC(=O)N[C@@H](Cc2ccccc2)C(=O)O)C1=O"
  Activity: "inactive"
- Molecule: "CC[C@H](C)[C@H](NC(=O)[C@H](Cc1ccc(O)cc1)NC(=O)[C@@H](N)C(C)C)C(=O)N1Cc2[nH]cnc2C[C@H]1C(=O)N1CCC[C@H]1C(=O)N[C@@H](Cc1ccccc1)C(=O)O (H-VYI[X1]PF-OH)"
  Activity: "inactive"
- Molecule: "CC[C@H](C)[C@H](NC(=O)[C@H](Cc1ccc(O)cc1)NC(=O)[C@@H](N)C(C)C)C(=O)N1Cc2ccccc2C[C@H]1C(=O)N1CCC[C@H]1C(=O)N[C@@H](Cc1ccccc1)C(=O)O (H-VYI[Tic]PF-OH)"
  Activity: "inactive"

---

- Experimental target: Type-1 angiotensin II receptor (Homo sapiens)
- Sequence (P30556 whole entry): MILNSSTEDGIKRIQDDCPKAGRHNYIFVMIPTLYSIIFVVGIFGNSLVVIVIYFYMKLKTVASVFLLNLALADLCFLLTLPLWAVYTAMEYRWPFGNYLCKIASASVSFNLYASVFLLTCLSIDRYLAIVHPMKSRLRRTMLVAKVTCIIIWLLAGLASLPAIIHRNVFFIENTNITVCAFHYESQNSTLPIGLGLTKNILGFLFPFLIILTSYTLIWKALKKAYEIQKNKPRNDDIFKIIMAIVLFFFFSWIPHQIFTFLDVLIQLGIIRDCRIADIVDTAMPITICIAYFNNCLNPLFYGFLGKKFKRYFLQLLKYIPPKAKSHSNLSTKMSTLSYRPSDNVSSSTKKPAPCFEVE
- Protocol: Displacement of [3H]valsartan from human recombinant AT1 receptor expressed in CHO cells after 40 mins by liquid scintillation counting
pKi: −log10 of the molar value.
Reported endpoint: pKi

- Compound string: "CC[C@H](C)[C@H](NC(=O)[C@H](Cc1ccc(O)cc1)NC(=O)[C@@H](CN)C(C)C)C(=O)N[C@H]1Cc2ccccc2CN(CC(=O)N[C@@H](Cc2ccccc2)C(=O)O)C1=O"
  Reported endpoint: "pKi"
  Numeric value: 6.85

---

- Protocol: Metabolic stability in CHOK1 cells harboring endogenous IRAP at 0.1 to 10000 nM pretreated for 40 mins by [3H]angiotensin 4 competition binding assay in absence of chelator EDTA and 1, 10-phenantroline
- Type: ADME, cell-based, Cricetulus griseus
- Run conditions: chinese hamster, cho-k1, 40 min, 10 µM
Reported endpoint: Stability

- Compound string: "CC[C@H](C)[C@H](NC(=O)[C@H](Cc1ccc(O)cc1)NC(=O)[C@@H](CN)C(C)C)C(=O)N[C@H]1Cc2ccccc2CN(CC(=O)N[C@@H](Cc2ccccc2)C(=O)O)C1=O"
  Reported endpoint: "Stability"
  Result: "Stable"
- Compound string: "CC[C@H](C)[C@H](NC(=O)[C@H](Cc1ccc(O)cc1)NC(=O)[C@@H](N)C(C)C)C(=O)N[C@H]1Cc2c([nH]c3ccccc23)CN(CC(=O)N[C@@H](Cc2ccccc2)C(=O)O)C1=O"
  Reported endpoint: "Stability"
  Result: "Unstable"
- Compound string: "CC[C@H](C)[C@H](NC(=O)[C@H](Cc1ccc(O)cc1)NC(=O)[C@@H](N)C(C)C)C(=O)N[C@H]1Cc2ccccc2CN(CC(=O)N[C@@H](Cc2ccccc2)C(=O)O)C1=O"
  Reported endpoint: "Stability"
  Result: "Unstable"
- Compound string: "CC[C@H](C)[C@H](NC(=O)[C@H](Cc1ccc(O)cc1)NC(=O)[C@@H](CN)C(C)C)C(=O)N[C@H]1Cc2c([nH]c3ccccc23)CN(CC(=O)N[C@@H](Cc2ccccc2)C(=O)O)C1=O"
  Reported endpoint: "Stability"
  Result: "Stable"
